molecular target: panel of 66 receptors, ion channels, and enzymes; test: NovaScreen broad selectivity panel at 100 nM, whole panel; details: read-out: projected Ki values (>50 % binding inhibition); single concentration 100 nM; at the 5-HT2A, D1, D2, D4, alpha1A and alpha1B receptors, and at SERT
recorded-metric: Ki

Supply Ki measured with panel of 66 receptors, ion channels, and enzymes for CN1CCN2c3c(cccc31)[C@@H]1CN(CCCC(=O)c3ccc(F)cc3)CC[C@@H]12 .
≤ 100 nM

---

Tested on: serine 40 (S40)-phosphorylated tyrosine hydroxylase
Test: Striatal tyrosine hydroxylase S40 phosphorylation state (CNSProfile immunoblotting)
Assay type: in vivo
Conditions: mice, acute; ITI-007 3 mg/kg p.o., clozapine 5 i.p., aripiprazole 10 p.o., olanzapine 1 i.p., risperidone 3 p.o., haloperidol 1 i.p.; over 60 min; vs vehicle
Description: The effect of the selected compounds on the phosphorylation state of tyrosine hydroxylase (TH) was measured and quantitated as an indicator of the potential of each compound to perturb presynaptic dopamine synthesis in striatum. […] This technique preserves in vivo levels of brain protein phosphorylation ([Zhu et al. 2010]). […] Antibody binding was detected and quantitated using a LiCor Odyssey infrared fluorescent detection system. […]
recorded-metric: Effect on TH phosphorylation at S40 in striatum

Cc1nc2n(c(=O)c1CCN1CCC(c3noc4cc(F)ccc34)CC1)CCCC2	significantly increase
O=C(CCCN1CCC(O)(c2ccc(Cl)cc2)CC1)c1ccc(F)cc1	significantly increase
Cc1cc2c(s1)Nc1ccccc1N=C2N1CCN(C)CC1	significantly increase

---

target: Histamine H1 receptor (Bos taurus, UniProt P30546)
Sequence (P30546 whole entry): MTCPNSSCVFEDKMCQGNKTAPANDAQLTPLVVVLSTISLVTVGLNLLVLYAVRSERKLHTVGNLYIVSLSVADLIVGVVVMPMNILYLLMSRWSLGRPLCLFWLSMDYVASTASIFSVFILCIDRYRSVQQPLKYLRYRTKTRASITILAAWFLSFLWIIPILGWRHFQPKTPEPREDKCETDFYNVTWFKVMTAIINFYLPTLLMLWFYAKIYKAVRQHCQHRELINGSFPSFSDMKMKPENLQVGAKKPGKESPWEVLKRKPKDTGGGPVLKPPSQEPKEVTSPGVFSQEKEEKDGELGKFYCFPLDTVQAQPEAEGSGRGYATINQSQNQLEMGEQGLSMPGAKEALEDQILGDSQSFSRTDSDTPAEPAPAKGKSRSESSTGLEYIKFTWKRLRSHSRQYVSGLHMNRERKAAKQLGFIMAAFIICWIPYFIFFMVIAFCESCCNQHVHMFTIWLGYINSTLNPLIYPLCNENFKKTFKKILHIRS
recorded-metric: Ki

Supply Ki measured with Histamine H1 receptor (Bos taurus, UniProt P30546) for CN1CCN2c3c(cccc31)[C@@H]1CN(CCCC(=O)c3ccc(F)cc3)CC[C@@H]12 [ITI-007] .
> 1000 nM

---

target: 5-HT2A receptor (Homo sapiens); conditions: read-out: IC50, antagonism of serotonin-induced increase in calcium fluorescence; serotonin 30 nM
Sequence (P28223 whole entry): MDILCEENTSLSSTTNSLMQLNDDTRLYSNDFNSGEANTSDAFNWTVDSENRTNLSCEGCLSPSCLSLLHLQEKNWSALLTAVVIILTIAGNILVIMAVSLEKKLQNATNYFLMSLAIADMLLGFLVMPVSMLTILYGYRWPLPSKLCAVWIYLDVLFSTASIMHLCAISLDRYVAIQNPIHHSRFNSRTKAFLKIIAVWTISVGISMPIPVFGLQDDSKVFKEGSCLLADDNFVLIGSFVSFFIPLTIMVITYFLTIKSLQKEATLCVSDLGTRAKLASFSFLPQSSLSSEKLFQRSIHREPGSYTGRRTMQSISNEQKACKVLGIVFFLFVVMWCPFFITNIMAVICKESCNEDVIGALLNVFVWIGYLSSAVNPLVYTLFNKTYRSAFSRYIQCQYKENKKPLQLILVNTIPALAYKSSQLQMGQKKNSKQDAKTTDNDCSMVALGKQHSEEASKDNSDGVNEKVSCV
recorded-metric: IC50 (nM)
Report as a plain number; the unit nM is understood.

Supply IC50 measured with 5-HT2A receptor (Homo sapiens) for CN1CCN2c3c(cccc31)[C@@H]1CN(CCCC(=O)c3ccc(F)cc3)CC[C@@H]12 [ITI-007] .
7

---

target: 5-HT2C receptor (Sus scrofa)
Sequence (K7GSR7 1-457): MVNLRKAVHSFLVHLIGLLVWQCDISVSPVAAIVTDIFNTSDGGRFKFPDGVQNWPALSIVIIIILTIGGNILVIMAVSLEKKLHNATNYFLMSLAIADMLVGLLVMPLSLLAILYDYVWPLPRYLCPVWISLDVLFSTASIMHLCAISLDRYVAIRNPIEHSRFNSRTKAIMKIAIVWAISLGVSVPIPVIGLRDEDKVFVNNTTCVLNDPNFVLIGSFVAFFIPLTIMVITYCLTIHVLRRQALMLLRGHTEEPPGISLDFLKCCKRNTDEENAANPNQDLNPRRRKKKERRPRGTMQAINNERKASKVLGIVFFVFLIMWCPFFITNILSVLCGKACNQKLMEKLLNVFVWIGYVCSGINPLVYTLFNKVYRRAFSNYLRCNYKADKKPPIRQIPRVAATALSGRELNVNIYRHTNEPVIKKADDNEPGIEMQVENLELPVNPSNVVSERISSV
recorded-metric: pKi
// pKi: -log10(molar conc.)

Supply pKi measured with 5-HT2C receptor (Sus scrofa) for CN1CCN2c3c(cccc31)[C@@H]1CN(CCCC(=O)c3ccc(F)cc3)CC[C@@H]12 [ITI-007] .
6.76
